target_under_test: T1, Avi/His-HuIL18BPa (recombinant human IL-18BP isoform A with Avi and poly-His tags) (human, biotinylated with BirA on the Avi tag in some assays)
T1 chain: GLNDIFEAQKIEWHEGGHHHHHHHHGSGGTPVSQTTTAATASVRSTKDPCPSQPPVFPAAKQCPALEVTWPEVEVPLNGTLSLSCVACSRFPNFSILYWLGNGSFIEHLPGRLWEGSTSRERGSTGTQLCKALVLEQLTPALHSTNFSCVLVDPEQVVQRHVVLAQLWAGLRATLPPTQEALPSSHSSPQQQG
assay_details: cell-based or functional assay
So I've got a bunch of binders here, and I need their EC50 of IFNγ release, human PBMCs values.

Value of measured EC50 of IFNγ release, human PBMCs for the entry anti-IL-18BP antibody variant BP-04.29 (antibody, V domains shown) VH: QVQLVQSGAEVKKPGASVKVSCKASGYTFTDYDMHWVRQAPGQGLEWMGIISTYYGDVSYAQKFQGRVTMTRDKSTSTVYMELSSLRSEDTAVYYCARSGTYNYGTRESHALDYWGQGTLVTVSS VL: DIQMTQSPSSVSASVGDRVTITCRASDNVYSNLAWYQQKPGKAPKLLIYGAISLADGVPSRFSGSGSGTDFTLTISSLQPEDFATYYCQHFWGNPYTFGQGTKLEIK : 3.53 nM

Value of measured EC50 of IFNγ release, human PBMCs for the entry anti-IL-18BP antibody variant BP-04.06 (antibody, V domains shown) VH: QVQLVQSGAEVKKPGASVKVSCKASGYTFTDYDMHWVRQAPGQGLEWMGIISTYYGVVSYAQKKQGRVTMTRDKSTSTVYMELSSLRSEDTAVYYCARSGTYYYGTRESHPLDYWGQGTLVTVSS VL: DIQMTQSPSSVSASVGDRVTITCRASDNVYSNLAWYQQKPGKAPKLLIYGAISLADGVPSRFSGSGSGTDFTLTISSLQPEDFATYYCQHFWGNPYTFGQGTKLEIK : 1.32 nM

Value of measured EC50 of IFNγ release, human PBMCs for the entry anti-IL-18BP antibody variant BP-04.02 (antibody, V domains shown) VH: QVQLVQSGAEVKKPGASVKVSCKASGYTFTDYDLHWVRQAPGQGLEWMGIISTYYGDVSYAQKFQGRVTMTRDKSTSTVYMELSSLRSEDTAVYYCARSGMYYYGTRESHALDYWGQGTLVTVSS VL: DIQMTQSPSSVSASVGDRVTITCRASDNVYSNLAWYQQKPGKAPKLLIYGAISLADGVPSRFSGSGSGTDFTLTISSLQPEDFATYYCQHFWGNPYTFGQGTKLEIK : 41.5 nM

Value of measured EC50 of IFNγ release, human PBMCs for the entry anti-IL-18BP antibody variant BP-04.23 (antibody, V domains shown) VH: QVQLVQSGAEVKKPGASVKVSCKASGYTFTDYDMHWVRQAPGQGLEWMGIYSTYYGDVSYAQKFQGRVTMTRDKSTSTVYMELSSLRSEDTAVYYCARSGTYYYGTRESHAFDYWGQGTLVTVSS VL: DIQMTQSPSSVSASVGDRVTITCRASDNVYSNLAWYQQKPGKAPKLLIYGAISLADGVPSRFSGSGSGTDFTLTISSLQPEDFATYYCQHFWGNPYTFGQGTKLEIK : 146 nM

Value of measured EC50 of IFNγ release, human PBMCs for the entry anti-IL-18BP antibody variant BP-04.14 (antibody, V domains shown) VH: QVQLVQSGAEVKKPGASVKVSCKASGYTFTDYDMHWVRQAPGQGLEWMGIISTYYGDVSYAQKFQGRVTMTRDKSTSTVYMELSSLRSEDTAVYYCARSGTYNYGTRESHAFDYWGQGTLVTVSS VL: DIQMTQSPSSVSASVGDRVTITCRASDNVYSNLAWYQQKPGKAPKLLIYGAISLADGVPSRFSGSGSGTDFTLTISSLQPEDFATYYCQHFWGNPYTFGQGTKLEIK : 543 nM
